meta.source: ChEMBL document CHEMBL5375979

pIC50: −log10 of the molar value.
// Dual specificity protein kinase CLK3 (Homo sapiens, UniProt P49761) pIC50 records

[
  {
    "compound-structure": "COC[C@@H](CC(C)C)NC1=N/C(=C\\c2ccc3ncsc3c2)C(=O)N1C1CCCCC1",
    "pIC50": "< 5.00"
  },
  {
    "compound-structure": "COC[C@@H](CC(C)C)NC1=N/C(=C\\c2cnc3ncsc3c2)C(=O)N1",
    "pIC50": "< 5.00"
  }
]

Now turn to the next compound.
Task: Query (compound): COC[C@@H](CC(C)C)NC1=N/C(=C\c2cc3scnc3cn2)C(=O)N1 ; field requested: pIC50
Output: < 5.00
